Some compounds, each annotated with its measured GI50.
System: ACHN renal
Assay: NCI tumour cell line growth inhibition, 48 h

Known results for compounds:
compound	GI50
Cc1cn(Cc2ccc(C34CC5CC(CC(C5)C3)C4)c(O)c2)c(=O)[nH]c1=O	10.8 µM
CC(C)COc1nc2c(c(=O)n(C)c(=O)n2C)n1C	> 100 µM
CCOc1ccn(-c2ccc(F)cc2)c(=O)c1C(=O)Nc1ccc(Oc2ccnc(N)c2Cl)c(F)c1	9.22 µM
CC(=O)[CH-]C(=O)c1ccccc1.CC(=O)[CH-]C(=O)c1ccccc1.O=S(=O)([O-])c1cc([O-])c2c([O-])cc(S(=O)(=O)[O-])cc2c1.[Na+].[Zr+4]	> 100 µM
Clc1ccccc1-c1nnc2c(Cc3ccccc3)nc3ccccc3n12	39.4 µM
Cc1cc(-c2cc(O)ccc2Cl)cc2nnc(Nc3ccc(OCCN4CCCC4)cc3)nc12	1.43 µM

Per the record, COc1ccc(/C=C2/SC(Nc3nc(-c4nc(NC5=NC(=O)/C(=C\c6ccc(OC)cc6)S5)sc4C)c(C)s3)=NC2=O)cc1 has GI50 of 0.838 µM

Per the record, Oc1c(Cl)cc(Cl)c2ccc(Cn3cc(-c4ccc(C(F)(F)F)cc4)nn3)nc12 has GI50 of 1.35 µM

Per the record, CC1NC(=O)C2=C1C(=O)NC(=O)C2 (centres undefined) has GI50 of > 100 µM

Per the record, COc1cccc(Nc2nc3ccccc3c3occc23)c1 has GI50 of 10.8 µM

Per the record, COC(=O)c1oc2c(C(=O)/C=C/c3ccc(OC)cc3)c(OCCN(C)C)ccc2c1C has GI50 of 5.9 µM

Per the record, c1ccc(CNCCN(CCNCc2ccccn2)Cc2ccc3ccccc3c2)nc1 has GI50 of 1.05 µM

Per the record, CC(=O)N1N=C(c2ccc(Nc3nc(Nc4ccc(F)cc4)nc(Nc4ccc(F)cc4)n3)cc2)CC1c1ccc(N(C)C)cc1 (centres undefined) has GI50 of 6.15 µM

Per the record, Cc1cc2c(-c3nc4ccccn4c3N)c(O)c(O)cc2c(O)c1-c1c(C)cc2c(-c3nc4ccccn4c3N)c(O)c(O)cc2c1O has GI50 of 1.63 µM

###

System: T-47D breast
Test: NCI tumour cell line growth inhibition, 48 h
Some compounds, each annotated with its measured TGI.

Known results for compounds:
compound	recorded_result
Cc1cc(C)c(-c2c(N)cc(Br)cc2Br)c(N)c1	19.3 µM
COc1ccccc1/C=C/C1=NN(c2cccc(S(=O)(=O)O)c2)C2(C1)C(Cl)C(=O)N2c1nc2ccccc2s1 (stereo unspecified)	44 µM
OC(CN(CCCl)CCCl)C(O)C(O)C(O)CN(CCCl)CCCl (stereo unspecified)	> 100 µM
O=C(NNC(=S)NC1CCCCC1)C12CC3CC(CC(C3)C1)C2	> 100 µM
CC1=C(O)c2ccccc2C(=O)C1=O	> 100 µM
COc1ccc2c(c1)/C(=C\c1c(Cl)[nH]c3ccccc13)C(=O)N2	> 100 µM

Per the record, O=C(CSCC(=O)N/N=C\c1cccc([N+](=O)[O-])c1)N/N=C\c1cccc([N+](=O)[O-])c1 has TGI of > 100 µM

Per the record, Cc1ccc2nc(C(C)C)c(=O)[nH]c2c1 has TGI of > 100 µM

Per the record, CCCCc1ccc(Nc2nc(OC)c3ncn(C4CC(O)C(CO)O4)c3n2)cc1 (stereo unspecified) has TGI of 43.1 µM

Per the record, O=C(/C=C/c1ccccc1)Nc1ccccc1SCCCCl has TGI of > 85.8 µM

Per the record, CCOC(=O)C(C#N)C1=CC(=O)C(=O)c2ccc(O)cc21 (stereo unspecified) has TGI of > 100 µM
